# Test system: CAKI-1 renal
# procedureText: NCI-60 one-dose screen, 48 h (100 = growth as untreated, 0 = no growth, -100 = all killed)
# runParameters: 10 µM unless noted
Compounds without any hit were thinned out: in the full panel of roughly 83,000, 20% have a hit.
In this section we review reported growth values for a set of compounds.

{"compound": "CSc1ccc2c3c(n(C[C@H](O)CO)c(=O)c2c1)-c1ccccc1C3=O", "growth / %": 27.9}
{"compound": "C=C(C)[C@@H]1CC[C@]2(C(=O)N3CCNCC3)CC[C@]3(C)[C@H](CC[C@@H]4[C@@](C)(CCC(=O)N5CCNCC5)[C@H](C(=C)C)CC[C@]43C)[C@@H]12", "growth / %": 92.7}
{"compound": "CC1(C)N=C(N)N=C(N)N1c1cc(Cl)ccc1Cl", "growth / %": 9.84}
{"compound": "COc1ccc2cc(-c3nc4ccc(C)cn4c3NCc3ccco3)c(=O)[nH]c2c1", "growth / %": 50.8}
{"compound": "CC(C)CCC[C@@H](C)[C@H]1CC[C@H]2[C@@H]3CC=C4c5sc(Nc6cc(C(F)(F)F)cc(C(F)(F)F)c6)nc5CC[C@]4(C)[C@H]3CC[C@]12C", "growth / %": 85.6}
{"compound": "COc1cc(-c2ccc(-c3ccc(C(=N)N)cc3)s2)cc(OC)c1OC", "growth / %": 63.4}
{"compound": "CN1CC(c2ccc(Br)cc2)C(C(=O)c2ccc(Br)cc2)C12C(=O)Nc1ccccc12 (centres undefined)", "growth / %": 46.9}
{"compound": "N#Cc1ccc(O)c(C2=NCC(c3ccc(-c4ccccc4)cc3)O2)c1 (centres undefined)", "growth / %": 3.1}
{"compound": "CN(C)CCn1c(=O)c2ccccc2n2nc3ccccc3c12", "growth / %": 77.6}

# credit: PubChem BioAssay (NCI)
